- measured.target: T1, PUF4 RNA-binding domain (Saccharomyces cerevisiae, UniProt P25339 537-888)
- T1 sequence: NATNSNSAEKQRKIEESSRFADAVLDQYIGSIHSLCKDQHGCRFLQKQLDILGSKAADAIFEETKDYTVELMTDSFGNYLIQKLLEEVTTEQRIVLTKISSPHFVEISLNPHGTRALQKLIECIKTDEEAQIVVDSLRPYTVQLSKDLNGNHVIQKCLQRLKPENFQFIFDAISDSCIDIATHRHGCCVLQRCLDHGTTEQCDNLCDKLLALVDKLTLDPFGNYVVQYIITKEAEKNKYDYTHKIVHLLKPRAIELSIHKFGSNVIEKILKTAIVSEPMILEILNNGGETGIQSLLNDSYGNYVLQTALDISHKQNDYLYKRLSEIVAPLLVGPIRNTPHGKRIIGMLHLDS
- test.summary: Mg; RNA-MaP; 20 mM Na-HEPES pH 7.4, 30 mM KOAc, 0.75 mM MgCl2, 0.1% Tween-20, 5% glycerol, 0.1 mg/mL BSA, 2 mM DTT; 25 C; 0.0125-409.6 nM protein
- experimental.context: tags: N-His6-TEV cleaved; C-SNAP kept, Cy3B-labelled; label: tethered on chip by stalled RNA polymerase
I'd appreciate it if you marked entries yes (1) when Kd is lower than 100 nM and no (0) when it is not.

Some entries whose results are on file:
Ib_S2_P4E.1_K4.1_C4.1_H4.1_[T3C]_[A4C]_A4.1_F4.1_T4.1 (ssRNA) RNA: UUUGAUUAAUAUGAUAUCGUUCUUUCUUGCCUAUUAUUCUUUCUCGAUAUCAUAUUAAUCUUU    no (0)
UCUCUUUGUAAAGCUUCUCUU (ssRNA) [Ic_S1_P4E.1_K4.1_C4.1_H4.1_A4.1_[T5A]_[T7G]_F4.1_[T8C]_[A9T]_T4.1]    no (0)
UCUCUUUGUACCCGUUCUCUU (ssRNA) [Ic_S1_P4E.1_K4.1_C4.1_H4.1_A4.1_[T5C]_[A6C]_[T7C]_F4.1_[T8G]_[A9T]_T4.1]    no (0)
UCUCUUAAACACUAUUAUUUCUCUU (ssRNA) [Id_ii_S1_P4E.4_K4.3_C4.2_[C-2A]_[T-1A]_H4.3_A4.1_F4.1_T4.2_[G10T]]    no (0)
ACAAACGAUAUAUAUUAUGACAAAC (ssRNA) [Id_ii_S3_P4E.3_K4.2_C4.2_[C-2G]_[T-1A]_H4.2_A4.1_F4.1_T4.2_[G10T]_[T11G]]    yes (1)

Just wondering, is Kd of UCUCUUCAACACUAUAAAUCUCUU (ssRNA) [Id_ii_S1_P3E.4_K3.3_C3.2_[T-1A]_H3.3_A3.1_F3.1_T3.2_[T9A]] below 100 nM?
no (0)

Just wondering, is Kd of UCUCUUUUUACACUAUAUAUCUCUU (ssRNA) [Id_iii_S1_P3E.7_K3.3_C3.3_[C-2T]_H3.3_A3.1_F3.1_T3.2] below 100 nM?
no (0)

Just wondering, is Kd of UCUCUUCUUGUAUAUACCCUUAUCUCUU (ssRNA) [Ie_S1_P3E.2_K3.1_C3.2_H3.1_A3.1_F3.1_[+8CCCT]_T3.2] below 100 nM?
yes (1)

Just wondering, is Kd of Ib_S2_P4E.1_K4.1_C4.1_H4.1_[A4G]_A4.1_F4.1_[A9T]_T4.1 (ssRNA) RNA: UUUGAUUAAUAUGAUAUCGUUCUUUCUUGUGUAUUUUUCUUUCUCGAUAUCAUAUUAAUCUUU below 100 nM?
yes (1)

Just wondering, is Kd of Ie_S4_P4E.1_K4.1_C4.1_H4.1_A4.1_[+5CCTCT]_F4.1_T4.1 (ssRNA) RNA: UUUGACAACUGAUCGUUCUUUCUUGUAUCCUCUAUUAUUCUUUCUCGAUCAGUUGUCUUU below 100 nM?
yes (1)
